Molecular target: T1, human CD47ECD mouse Fc protein (human, UniProt Q08722 19-139, limits assumed)
T1 construct: extracellular domain; also called HuCD47ECD muFc; bivalent CD47ECD muFc protein; not shown: mouse Fc
T1 sequence (Q08722 19-139 limits assumed): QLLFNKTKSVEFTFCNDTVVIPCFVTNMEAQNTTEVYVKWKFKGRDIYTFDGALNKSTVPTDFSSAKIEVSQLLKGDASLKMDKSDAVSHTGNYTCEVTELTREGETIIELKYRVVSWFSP
Experiment: SPR (Biacore 3000); antibody captured on anti-human Fc chip, bivalent HuCD47ECD muFc injected
Recorded measurements of pKd, one per entry
Keep in mind that pKd stands for -log10 of concentration in molar terms.

**Q:** Assign pKd to the following record: D125S3 mouse/human chimeric anti-human CD47 antibody (antibody, V domains shown, also called chimeric D125S3) VH: EVQLVESGGDLVKPGGSLNLSCAASGFTFSDYGMSWVRQTPDMRLEWVATISKYGTYTSYPDSVKGRFTISRSNAKNTLYLQMSSLKSADTALYYCARRFFGNYNYWYFDVWGAGTTVTVSS VL: DIVLTQSPASLAVSLGQRATFSCRASESVDEFGISYIHWYKKSPGQPPKLLIYRASTLESGISARFSGSGSGTDFTLTINPVETDDVATYYCQQSNQDPLTFGAGTKLELK
**A:** 9.46

**Q:** Indicate the recorded pKd value for this binder: D41S2 mouse/human chimeric anti-human CD47 antibody (antibody, V domains shown, also called chimeric D41S2) VH: EVQLQQSVAELVRPGASVKLSCTPSGFNIKNTYIYWVRQRPEQGLEWIGRIDPANGNTKDAPKFQGKATMTADTSSNTAYLQLSSLTSEDTAIYYCARGYGSGFAYWGQGTLVTVSA VL: DIQMTQTTSSLSASLGDRVTISCRASQDISNHLNWYQQKPDGTVKLLIYYTSRLHSGVPSRFSGSGSGTDYSLTISNLEQEDIATYFCQQGSTLPFTFGSGTKLEIK
**A:** 9.64

---
**Q:** Specify measured pKd for D28S1 mouse/human chimeric anti-human CD47 antibody (antibody, V domains shown, also called chimeric D28S1; D28S1VH/VL) VH: EVQLVESGGDLVKPGGSLKLSCAASGFTFTSYGMSWVRQTPDKRLEWVATINTGGSYTYYPDSVKGRFTISRDNAKNTLYLQMSSLKSEDTAMYYCARHTIKSLMDYWGQGTSVTVSS VL: ETTVTQSPASLSMAIGEKVTIRCITSTDIDDDMNWYQQKPGEPPKLLISEGNTLRPGVPSRFSSSGYGTDFVFIIENMFSEDVADYYCLQSDNLPYTFGSGTKLEIK .
**A:** 8.86
